Hey, just so you know, these numbers are from paper PMC9482650.

# System Name: MAGI2_4, Q86UL8
# Sequence (Q86UL8 772-865): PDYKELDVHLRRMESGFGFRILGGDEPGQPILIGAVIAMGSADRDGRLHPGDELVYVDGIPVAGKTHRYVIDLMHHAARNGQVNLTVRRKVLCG
# Experiment Notes: holdup assay
# Set-up: key: below the threshold = too weak to quantify, mostly under pKd 3.1 to 4
# Protocol Conditions: plain residues with an end cap or a label only (N-terminal biotin on a linker: ttds)
Quantity Measured: pKd

>  <Binder>
PSRDRKETSI [RALBP1, Q15311]

>  <Result>
below the threshold

$$$$
>  <Binder>
GRLLGLETNV [ARHGEF26, Q96DR7]

>  <Result>
4.02

$$$$
>  <Binder>
QRPYRRESEI [KCNJ12, Q14500]

>  <Result>
below the threshold

$$$$
>  <Binder>
SHSSKGETAV [FZD7, O75084]

>  <Result>
below the threshold

$$$$
>  <Binder>
SRSRRRETAL [HPV33-E6, P06427]

>  <Result>
below the threshold

$$$$

I would be grateful if you could provide pKd for each of the following entries.
1. DLDEEEDTHL [PODXL, O00592]
2. KQVVPFSSSV [GDA, Q9Y2T3]

below the threshold
3.69
